Where these numbers come from: the Biogen ADME set (Fang et al. 2023)

SETUP CONDITIONS: pH 6.8
MEASUREMENT TYPE: aqueous solubility (µg/mL)
Numbers only, in µg/mL.

Sample records with aqueous solubility:
Query: aqueous solubility for CCN(CC)C(=O)N1CCC(C(=O)O)CC1 ?
Reply: 60.2

Query: And for Cc1sc(NC(=O)CN2CCOC(C3CCCO3)C2)c(C)c1C (stereo not drawn) ?
Reply: 60.9

Proceed to the following item.
Query: What value of measured aqueous solubility is listed for O=C(CCCc1ccc(F)cc1)N1CCN(c2ccccc2)C(=O)C1 ?
Reply: 49.2

====

Give measured MDR1-MDCK efflux ratio for each item. Keep answers brief.
Answers are plain numbers.

Solved cases below.
Query: State the recorded MDR1-MDCK efflux ratio for this entry: CO[C@H]1CC[C@@H](C(=O)c2ccc3nc4c(cc3c2)CCCO4)CC1
Reply: 0.805

Query: Same for O=C(CCCc1cc(Cl)sc1Cl)N1CCC(O)CC1
Reply: 0.857

Query: Record: Cc1cc(CNc2ncc(C(F)(F)F)cc2Cl)no1
Reply: 0.601

Query: Further, for O=C1N=C2C=CC=CN2C12Cc1ccccc1C2 ?
Reply: 4.09

Please state, for each entry, its recorded MDR1-MDCK efflux ratio.
1. COC(=O)[C@@H]1Cc2ncn(Cc3ccccc3)c2CN1C(C)=O
2. CC(C)(C)c1nc(Cn2nnc3ccccc3c2=O)no1
3. O=c1c(-c2ccc(F)cc2)c(-c2ccncc2)[nH]n1-c1ccc(Cl)cc1
4. CN1CCc2ccc(C(=O)NCCC(=O)Nc3cccnc3)cc21
5. Cc1ccc(NC(=O)C(C)(C)c2ccccc2)nc1

Reply:
[17.6, 0.68, 1.46, 43.4, 0.556]

====

Provide the recorded MDR1-MDCK efflux ratio for the entries that follow.
Numbers only.

Solved cases (6 shown):
Query: Quick check: MDR1-MDCK efflux ratio of CC(C)(C)CC(=O)N1CCC(OCCCN)CC1 ?
Reply: 8.05

Query: Param item: O=C(NCC1=CCCN(Cc2cc(F)ccc2Cl)C1)c1ccco1
Reply: 0.69

Query: Same question, CCC1(CC)NC(=O)N(CC(=O)N2CCOCC3(CCCC3)C2)C1=O this time
Reply: 81.5

Query: // repeat for COC[C@@H](O)Cn1c(C)nc2ccccc21 and report
Reply: 1.43

Query: Further, for CC(C)(O)CCn1cc2cc(NC(=O)c3cccc(C(F)(F)F)n3)c(C(C)(C)O)cc2n1 ?
Reply: 10.2

Query: Same question for Cc1noc(NCc2ccc(F)cc2C)n1 please.
Reply: 0.589

For each of the compounds below, state MDR1-MDCK efflux ratio.
1. CCc1cc(N(C)Cc2ccc(N)nc2)nc(C)n1
2. O=C(Nc1ccn(Cc2ccc(O)cc2C(F)(F)F)n1)c1c(F)cccc1F
3. Cc1ccc(-c2ccc(-c3nccn3CCCn3cnnc3)o2)cc1
4. Cc1cc(F)ccc1C1C(=O)NCCN1C(=O)c1ccc2nccn2c1 (configuration not stated)
5. CC(C)Oc1cccc(C(C)NC(=O)c2ccnc(-n3cncn3)c2)c1 (configuration not stated)
6. CN(CCCC1CCCC1)Cc1cc(=O)[nH]c(=O)[nH]1
7. CCCCOc1ccccc1-c1cc(C(=O)NCCc2cccs2)[nH]n1
8. Cc1ccnc(C2CCN(C3CCCC3)CC2)n1

Reply:
[1.99, 2.23, 123, 8.42, 1.81, 0.839, 0.459, 1.12]

Each compound below has a recorded value; state its MDR1-MDCK efflux ratio.
1. CN(C)C(=O)C1(Cc2ccccc2-c2cccc(F)c2)CCN(C(=O)C2CC=CCC2)CC1 (configuration not stated)
2. O=C(Cc1c(F)cccc1Cl)Nc1cccc2cnccc12
3. O[C@@H]1C[C@@H](c2nc(-c3ccccc3)no2)N(Cc2ccccc2)C1

Reply:
[1.46, 0.889, 0.539]
